- Species: Rattus norvegicus
- Assay type: toxicity, organism-based, Sprague-Dawley
- setup conditions: in vivo, po, 900 mg/kg, 24 h, tissue Blood, route oral GAVAGE, dose level High, time 1 day, […]
- Description: DrugMatrix - Regimen: Single

>  <molecular string>
Clc1ccc(Cl)cc1

>  <ABSOLUTE LYMPHOCYTE / cells/µL>
4230

$$$$

* * *

- Species: Rattus norvegicus
- assay overview: DrugMatrix - Regimen: Daily Repeat
- Type: toxicity, organism-based, Sprague-Dawley
- Set-up: regimen Daily Repeat, gender Male, age 6-8 weeks
- setup conditions: in vivo, po, 0 mg/kg, 72 h, tissue Blood, route oral GAVAGE, dose level Control, time 3 day, […]
NEUTROPHIL strictly under 9% means fulfilled; at 9% or over means not fulfilled.

>  <compound>
CCOC(=O)C(C)(C)Oc1ccc(Cl)cc1 [CLOFIBRATE]

>  <answer label>
not fulfilled

$$$$
>  <compound>
Cc1cccc(Nc2ccncc2S(=O)(=O)NC(=O)NC(C)C)c1 [TORSEMIDE]

>  <answer label>
not fulfilled

$$$$
>  <compound>
COc1ccc2[nH]c([S+]([O-])Cc3ncc(C)c(OC)c3C)nc2c1 (stereo not given)

>  <answer label>
fulfilled

$$$$
>  <compound>
C[C@H]1O[C@@H](O[C@H]2[C@@H](O)C[C@H](O[C@H]3[C@@H](O)C[C@H](O[C@H]4CC[C@@]5(C)[C@H](CC[C@@H]6[C@@H]5CC[C@]5(C)[C@@H](C7=CC(=O)OC7)CC[C@]65O)C4)O[C@@H]3C)O[C@@H]2C)C[C@H](O)[C@@H]1O

>  <answer label>
fulfilled

$$$$
>  <compound>
COCCOC(=O)C1=C(C)NC(C)=C(C(=O)OC(C)C)C1c1cccc([N+](=O)[O-])c1 (stereo not given)

>  <answer label>
fulfilled

$$$$

* * *

Each entry below carries its recorded ALKALINE PHOSPHATASE.
- Organism: Rattus norvegicus
- assay overview: DrugMatrix - Regimen: Daily Repeat
- Format: toxicity, organism-based, Sprague-Dawley
- Set-up: regimen Daily Repeat, gender Male, age 6-8 weeks
- setup conditions: in vivo, po, 1500 mg/kg, 72 h, tissue Plasma, route oral GAVAGE, dose level High, time 3 day, vehicle .5 % CMC
property label: ALKALINE PHOSPHATASE (u/L)

>  <compound>
C[C@]1(Cn2ccnn2)[C@H](C(=O)O)N2C(=O)C[C@H]2S1(=O)=O

>  <recorded result>
447.33

$$$$
>  <compound>
CO[C@H]1/C=C/O[C@@]2(C)Oc3c(C)c(O)c4c(c3C2=O)C2=NC3(CCN(CC(C)C)CC3)NC2=C(NC(=O)/C(C)=C\C=C\[C@H](C)[C@H](O)[C@@H](C)[C@@H](O)[C@@H](C)[C@H](OC(C)=O)[C@@H]1C)C4=O

>  <recorded result>
350.33

$$$$
>  <compound>
Cc1cc(=O)n(-c2ccccc2)n1C [ANTIPYRINE]

>  <recorded result>
404.67

$$$$
>  <compound>
CNC(=C[N+](=O)[O-])NCCSCc1ccc(CN(C)C)o1

>  <recorded result>
349.67

$$$$
>  <compound>
O=C(N[C@H](CO)[C@H](O)c1ccc([N+](=O)[O-])cc1)C(Cl)Cl

>  <recorded result>
347

$$$$
>  <compound>
NC(=O)c1cnccn1 [PYRAZINAMIDE]

>  <recorded result>
315.67

$$$$
>  <compound>
Cc1ccc(S(=O)(=O)NC(=O)NN2CC3CCCC3C2)cc1 (configuration not stated) [GLICLAZIDE]

>  <recorded result>
337.33

$$$$
